system: LOX IMVI melanoma; test: NCI tumour cell line growth inhibition, 48 h
Quantity: TGI

Please give the documented TGI of Cc1ccc(SC(C)/C=C/NNC2=NC(c3ccccc3)C(c3ccccc3)=NN2)cc1 (stereo not drawn)
> 100 µM

Please give the documented TGI of COc1ccc(C2S/C(=C\c3ccccc3O)C(=O)N2NC(=O)Cc2ccccc2)cc1 (stereo not drawn)
> 100 µM

Please give the documented TGI of CNC(=S)N(C)C(=S)Nn1c(=O)c(C)nn(C)c1=S
> 100 µM

###

system: IGROV1 ovarian; assay: NCI tumour cell line growth inhibition, 48 h
Quantity: TGI

Please give the documented TGI of Cc1cccc(-c2nc3ccc([N+](=O)[O-])cc3c(=O)o2)c1
> 100 µM

Please give the documented TGI of Cn1cc(C2=C(c3ccc4ccccc4c3)C(=O)NC2=O)c2ccccc21
> 25 µM

Please give the documented TGI of Clc1coc2nc3ccccc3c(Nc3ccc4c(c3)OCO4)c12
> 100 µM

Please give the documented TGI of O=c1nc2occc2cn1C1CC(O)C(CO)O1 (stereo not given)
> 100 µM

Please give the documented TGI of CC(C)(C)C(=O)OCC1CCC[N+]2(C)CCCCC12 (stereo not given)
> 100 µM

###

test system: TK-10 renal; assay: NCI tumour cell line growth inhibition, 48 h
Quantity: TGI

Please give the documented TGI of COc1ccc(C2S/C(=C\c3ccccc3O)C(=O)N2NC(=O)Cc2ccccc2)cc1 (stereo not drawn)
> 100 µM

Please give the documented TGI of O=C1NC(=Nc2ccccc2)S/C1=C\c1ccc2ncccc2c1
> 25 µM

Please give the documented TGI of NC(CCCCP(=O)(O)O)C(=O)O (stereo not drawn)
> 100 µM

Please give the documented TGI of Cc1ccc(S(=O)(=O)NCC2CCCCC2=O)cc1 (stereo not drawn)
> 100 µM

Please give the documented TGI of Cc1ccc2c(n1)C(=O)c1[nH]c3ccccc3c1C2=O
> 100 µM

Please give the documented TGI of CC1OC(n2cc(F)c(=O)[nH]c2=O)C=CC1O (stereo not drawn)
> 100 µM

Please give the documented TGI of O=Cc1cc2c(cc1-c1c(C=O)ccc3c1OCO3)OCO2
> 10 µM

Please give the documented TGI of COc1ccc(C(C)NNC(=O)c2ccncc2)c(OC)c1 (stereo not drawn)
> 100 µM

###

Exercise: state measured TGI for each of the compounds provided.
tested on: ACHN renal; assay: NCI tumour cell line growth inhibition, 48 h

GET TGI where system = ACHN renal and item = CCOC(=O)C1(Cc2ccc3c(c2)CCC3)Cc2cc3c(cc2C1)CCC3
> 100 µM

GET TGI where system = ACHN renal and item = O=[N+]([O-])c1ccccc1S(=O)(=O)c1cc(Cl)cc2c1NCCC2
> 100 µM

GET TGI where system = ACHN renal and item = Cc1ccc(SC(C)/C=C/NNC2=NC(c3ccccc3)C(c3ccccc3)=NN2)cc1 (stereo not drawn)
> 100 µM

###

system: EKVX NSCLC; assay: NCI tumour cell line growth inhibition, 48 h; in the data active = GI50 below about 0.43 µM; inactive = the rest
Tick one outcome: Y for active, N for inactive

Query: recorded result category for COc1ccc2c(c1)C(C)Cc1c(Cl)ncnc1N2C (stereo not drawn) in this test
N

Query: recorded result category for O=[N+]([O-])c1ccc(C=C2C(Cl)=C(Cl)C(Cl)=C2Cl)cc1 in this test
N

Query: recorded result category for C/C1=C\CC[C@@]2(C)O[C@@H]2[C@H]2OC(=O)[C@@H](CN(C)C)[C@@H]2CC1 in this test
N

Query: recorded result category for CC(=O)O.CC(=O)O.CC(=O)O.CC(=O)O.CC(=O)O.CC(=O)O.O.[Ti].[Ti] in this test
N

Query: recorded result category for C[C@H]1c2cccc(O)c2C(O)=C2C(=O)[C@]3(O)C(O)=C(C(N)=O)C(=O)[C@@H](N(C)C)[C@@H]3[C@@H](O)[C@@H]21 in this test
N

Query: recorded result category for C=C(C)[C@@]12OC3(/C=C/C=C/CCCCC)O[C@@H]1[C@@H]1[C@@H]4O[C@]4(CO)[C@@H](O)[C@]4(O)C(=O)C(C)=C[C@H]4[C@@]1(O3)[C@H](C)[C@H]2OC(=O)c1ccccc1 in this test
N

Query: recorded result category for CCC[CH2][Sn]([CH2]CCC)([CH2]CCC)[O]C(=O)CC in this test
Y

Query: recorded result category for COC(=O)/C=C/c1cc(O)c2oc(-c3ccc(O)c(O)c3)c(C(=O)OC)c2c1 in this test
N
